Source listed as ChEMBL document CHEMBL1155031.

- Tested on: Toxoplasma gondii
- assay comment: Antitoxoplasma activity against wild type Toxoplasma gondii RH assessed as survival at 10 uM after 18 hrs by [5,6-[…]]uracil incorporation assay
- Type: functional
reported property: survival at 10 µM (%)
Answers are plain numbers, in %.

Some entries whose results are on file:
smiles representation: N#Cc1ccc(CSc2ncnc3c2ccn3[C@@H]2O[C@H](CO)[C@@H](O)[C@H]2O)cc1
data value: 4
--
smiles representation: CCc1nc(N)nc(N)c1-c1ccc(Cl)cc1
data value: 36.5
--
smiles representation: COc1ccc(CSc2ncnc3c2ccn3[C@@H]2O[C@H](CO)[C@@H](O)[C@H]2O)cc1
data value: 5

Kindly review the next compound as well.
Incoming: For "Nc1ccc(S(=O)(=O)Nc2ncccn2)cc1" , write its survival at 10 µM.
Outgoing: 64.8

---

For each record, write down the corresponding viability at 48 h, 50 µM.
- assay comment: Toxicity against human foreskin fibroblasts at 50 uM after 48 hrs by MTT method
- Assay type: cell-based, Fibroblast
- condition set: read-out: Survival
Numbers only, in %.

smiles representation: Nc1ccc(S(=O)(=O)Nc2ncccn2)cc1
viability at 48 h, 50 µM, %: 102
//
smiles representation: CCc1nc(N)nc(N)c1-c1ccc(Cl)cc1
viability at 48 h, 50 µM, %: 108

# return viability at 48 h, 50 µM for each item in the list
1. N#Cc1ccc(CSc2ncnc3c2ccn3[C@@H]2O[C@H](CO)[C@@H](O)[C@H]2O)cc1
2. COc1ccc(CSc2ncnc3c2ccn3[C@@H]2O[C@H](CO)[C@@H](O)[C@H]2O)cc1

Outgoing:
82.1
90.6

---

For each record, write down the corresponding pKi.
- system under test: Adenosine kinase (Toxoplasma gondii, UniProt Q9TVW2)
- Sequence (Q9TVW2 whole entry): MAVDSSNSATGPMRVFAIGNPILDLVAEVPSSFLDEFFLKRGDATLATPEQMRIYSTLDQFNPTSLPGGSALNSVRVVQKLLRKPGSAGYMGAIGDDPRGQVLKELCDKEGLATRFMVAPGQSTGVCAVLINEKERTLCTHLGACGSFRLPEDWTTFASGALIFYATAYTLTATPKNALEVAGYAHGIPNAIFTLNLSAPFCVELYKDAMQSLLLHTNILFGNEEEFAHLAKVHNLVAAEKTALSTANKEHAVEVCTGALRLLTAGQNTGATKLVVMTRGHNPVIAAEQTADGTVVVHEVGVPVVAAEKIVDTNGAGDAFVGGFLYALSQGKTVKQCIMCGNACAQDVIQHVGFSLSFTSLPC
- assay comment: Binding affinity to purified Toxoplasma gondii adenosine kinase
Answers are plain numbers, as −log10 of the molar value.

Study these solved cases before continuing.
smiles representation: OC[C@H]1O[C@@H](n2cc(I)c3c(SCc4ccccc4)ncnc32)[C@H](O)[C@@H]1O
pKi: 4.08
//
smiles representation: Nc1ncnc2c1ncn2[C@@H]1O[C@H](CO)[C@@H](O)[C@H]1O
pKi: 5.05
//
smiles representation: OC[C@H]1O[C@@H](n2ccc3c(SCc4ccccc4)ncnc32)[C@H](O)[C@@H]1O
pKi: 4.55
//
smiles representation: CC(C)(C)c1ccc(CSc2ncnc3c2ccn3[C@@H]2O[C@H](CO)[C@@H](O)[C@H]2O)cc1
pKi: 4.62
//
smiles representation: COc1ccc(CSc2ncnc3c2ccn3[C@@H]2O[C@H](CO)[C@@H](O)[C@H]2O)cc1
pKi: 5.24

# batch: return pKi for each of the 7 compounds below
1. OC[C@H]1O[C@@H](n2ccc3c(SCc4ccccc4Cl)ncnc32)[C@H](O)[C@@H]1O
2. OC[C@H]1O[C@@H](n2ccc3c(SCc4ccc(Cl)cc4)ncnc32)[C@H](O)[C@@H]1O
3. OC[C@H]1O[C@@H](n2ccc3c(SCc4ccc(OC(F)(F)F)cc4)ncnc32)[C@H](O)[C@@H]1O
4. Cc1cccc(CSc2ncnc3c2ccn3[C@@H]2O[C@H](CO)[C@@H](O)[C@H]2O)c1
5. OC[C@H]1O[C@@H](n2ccc3c(SCc4ccc(Cl)cc4Cl)ncnc32)[C@H](O)[C@@H]1O
6. Cc1ccc(CSc2ncnc3c2ccn3[C@@H]2O[C@H](CO)[C@@H](O)[C@H]2O)cc1
7. O=[N+]([O-])c1ccc(CSc2ncnc3c2ccn3[C@@H]2O[C@H](CO)[C@@H](O)[C@H]2O)cc1

Outgoing:
4.44
4.96
4.46
5.07
4.59
4.72
4.46
